- measurement-target: UniProtKB P51639
- experiment-summary: In vitro inhibition of HMG-CoA reductase in solubilized rat liver.
pIC50: −log10 of the molar value.
measured-attribute: pIC50

A. Cc1cc(Cl)cc(C(c2ccc(F)cc2)c2ccc(F)cc2)c1OCC(O)C[C@@H](O)CC(=O)O (stereo not given in full)
B. Cc1cc(Cl)c(OCC(O)C[C@@H](O)CC(=O)O)c(C(c2ccc(F)c(C)c2)c2ccc(F)c(C)c2)c1 (stereo not given in full)
C. Cc1c(OCC(O)C[C@@H](O)CC(=O)O)c(C(c2ccc(F)cc2)c2ccc(F)cc2)cc2ccccc12 (stereo not given in full)
D. CC(C)c1c(O)c(C(C)C)c(C(C)C)c(OCC(O)C[C@@H](O)CC(=O)[O-])c1-c1ccc(F)cc1.[Na+] (stereo not given in full)
From the items above, give an ordering by pIC50 that starts at the lowest reported number. List the labels according to the requested ordering.
C, B, A, D

A. COc1ccc(C(c2ccc(F)cc2)c2cc(C)cc(C)c2OCC(O)C[C@@H](O)CC(=O)O)cc1 (stereo not given in full)
B. CC(C)c1cc(C(C)(C)C)cc(-c2ccc(F)cc2)c1OCC(O)C[C@@H](O)CC(=O)[O-].[Na+] (stereo not given in full)
Which numeric pIC50 is bigger, that of A or that of B ? Lab note: record the label of whichever item you select.
A

----------
- measurement-target: UniProt P51639
- experiment-summary: In vitro inhibition of HMG-CoA reductase in solubilized rat liver.
measured-attribute: IC50 (nM)

| compound | IC50 / nM |
| --- | --- |
| CC(C)c1cc(-c2ccccc2)cc(CC2CCCCC2)c1OCC(O)C[C@@H](O)CC(=O)O (some centres undefined) | 400 |
| O=C(O)C[C@H](O)CC(O)COc1c(Cl)cc(Cl)cc1C(CCOc1ccc(F)cc1)c1ccc(F)cc1 (some centres undefined) | 150 |
| O=C(O)C[C@H](O)CC(O)COc1c(Cl)cc(Cl)cc1C(F)(F)C1CCCCC1 (some centres undefined) | 85 |

A. Cc1cc(C)c(OCC(O)C[C@@H](O)CC(=O)O)c(C(CC(C)C)c2ccc(F)cc2)c1 (some centres undefined)
B. Cc1cc(Cl)cc(CCCOc2ccc(Cl)cc2)c1OCC(O)C[C@@H](O)CC(=O)O (some centres undefined)
Which numeric IC50 is bigger, that of A or that of B ? Lab note: record the label of whichever item you select.
A
(A: 140 nM, B: 50 nM)

----------
- measurement-target: 3-hydroxy-3-methylglutaryl-coenzyme A reductase (Rattus norvegicus, UniProt P51639)
- Sequence (P51639 whole entry): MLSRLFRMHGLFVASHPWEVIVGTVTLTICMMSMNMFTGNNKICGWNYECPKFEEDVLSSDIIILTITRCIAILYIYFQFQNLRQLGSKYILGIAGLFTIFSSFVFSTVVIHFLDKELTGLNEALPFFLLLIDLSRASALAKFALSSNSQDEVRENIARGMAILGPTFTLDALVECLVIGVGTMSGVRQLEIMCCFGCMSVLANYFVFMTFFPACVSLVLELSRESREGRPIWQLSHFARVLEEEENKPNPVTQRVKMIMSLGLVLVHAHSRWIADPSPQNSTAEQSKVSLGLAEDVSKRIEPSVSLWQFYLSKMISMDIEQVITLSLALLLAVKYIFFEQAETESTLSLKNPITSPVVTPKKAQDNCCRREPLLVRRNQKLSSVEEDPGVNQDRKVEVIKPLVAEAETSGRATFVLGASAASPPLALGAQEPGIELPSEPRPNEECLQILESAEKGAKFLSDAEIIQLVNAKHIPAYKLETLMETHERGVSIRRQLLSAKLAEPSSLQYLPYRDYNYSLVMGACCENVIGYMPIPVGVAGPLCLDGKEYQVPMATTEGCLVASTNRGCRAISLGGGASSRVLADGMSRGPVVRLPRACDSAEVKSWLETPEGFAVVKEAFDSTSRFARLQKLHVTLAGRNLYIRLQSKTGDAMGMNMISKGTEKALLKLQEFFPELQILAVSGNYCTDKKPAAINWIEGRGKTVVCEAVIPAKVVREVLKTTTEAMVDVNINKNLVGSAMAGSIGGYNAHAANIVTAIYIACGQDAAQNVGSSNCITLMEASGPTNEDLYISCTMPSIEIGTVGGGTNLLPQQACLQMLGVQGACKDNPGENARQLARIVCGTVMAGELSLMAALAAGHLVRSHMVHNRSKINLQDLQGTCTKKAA
- experiment-summary: In vitro inhibition of HMG-CoA reductase in solubilized rat liver.
The entries below come with measured IC50 values attached.

| compound | measurement-target | endpoint-result |
| --- | --- | --- |
| O=C(O)C[C@H](O)CC(O)COc1c(CCCOc2ccc(F)cc2)cccc1C1CCCC1 (some centres undefined) | 3-hydroxy-3-methylglutaryl-coenzyme A reductase (Rattus norvegicus, UniProt P51639) | > 1 µM |
| Cc1cc(C)c(OCC2C[C@@H](O)CC(=O)O2)c(C(Cl)C2CCCCC2)c1 (some centres undefined) | 3-hydroxy-3-methylglutaryl-coenzyme A reductase (Rattus norvegicus, UniProt P51639) | > 1 µM |
| Cc1nc2ccccc2c(-c2ccccc2)c1OCC(O)C[C@@H](O)CC(=O)O (some centres undefined) | 3-hydroxy-3-methylglutaryl-coenzyme A reductase (Rattus norvegicus, UniProt P51639) | > 1 µM |

Hello, I am looking for reported IC50 with 3-hydroxy-3-methylglutaryl-coenzyme A reductase (Rattus norvegicus, UniProt P51639) for O=C(O)C[C@H](O)CC(O)COc1c(CCCOc2ccc(F)cc2)cc(Cl)cc1C1CCCC1 (some centres undefined) . Could you help?
> 1 µM
